study target: binding partner of C5A (XPA23)
test details: Biacore
Listed next: entries and their corresponding fold difference in affinity vs original.
Express the result in fold but write the number alone.

>>> data_value("C5A (XPA23) VH F35V (antibody, V domains shown) VH: EVQLLESGGGLVQPGGSLRLSCAASGFTFSKYFMVWVRQAPGKGLEWVSVISPSGGMTRYADSVKGRFTISRDNSKNTLYLQMNSLRAEDTAVYYCARVGYGGNSDYWGQGTLVTVSS VL: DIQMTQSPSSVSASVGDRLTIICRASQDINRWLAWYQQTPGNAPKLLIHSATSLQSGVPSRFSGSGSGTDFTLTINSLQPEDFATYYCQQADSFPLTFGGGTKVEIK")
0.89

Shifting focus to the binder that follows.
Ask | State the recorded fold difference in affinity vs original for this entry: C5A (XPA23) VH R59T (antibody, V domains shown) VH: EVQLLESGGGLVQPGGSLRLSCAASGFTFSKYFMFWVRQAPGKGLEWVSVISPSGGMTTYADSVKGRFTISRDNSKNTLYLQMNSLRAEDTAVYYCARVGYGGNSDYWGQGTLVTVSS VL: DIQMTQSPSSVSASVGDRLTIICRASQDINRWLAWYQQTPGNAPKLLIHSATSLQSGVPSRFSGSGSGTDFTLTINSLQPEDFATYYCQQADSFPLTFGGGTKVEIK
Reply | 0.76
